- assay-details: Quantitative High-Throughput drug screen in 47 multiple myeloma cell lines against the NCATS MIPE library collection: OPM2_DSMZ cell viability assay (AID 1919872); also: nearly all actives have a fitted effect of over 30% in size
- particulars: OPM2 myeloma viability, CellTiter-Glo ATP luminescence, 48 h; series mostly up to 45.8 µM
Records with an inconclusive call do not appear. Activity calls are given as the source filed them. Calls follow the shape of the dose curve; as a rule, active = well fitted cell-killing curve with a large enough effect; inconclusive = small, poorly fitted or top-dose-only effect, or effect the other way; inactive = no such curve, though single readings can be large or run the other way.
Give one outcome, nothing more. List: active, inactive

[
  {
    "molecule": "Cn1cc(C2=C(c3c4n(c5ccccc35)CCC(CN)C4)C(=O)NC2=O)c2ccccc21 (stereo not given)",
    "group-label": "active"
  },
  {
    "molecule": "C=CC1=C(C(=O)O)N2C(=O)[C@@H](NC(=O)C(=NO)c3csc(N)n3)[C@H]2SC1",
    "group-label": "inactive"
  },
  {
    "molecule": "NC(=O)Nc1sc(-c2ccc(F)cc2)cc1C(N)=O",
    "group-label": "active"
  },
  {
    "molecule": "CC(C)C[C@H](NC(=O)CNC(=O)c1cc(Cl)ccc1Cl)B1OC(=O)CC(CC(=O)O)(C(=O)O)O1 (stereo not given in full)",
    "group-label": "active"
  }
]

Attention now turns to another entry.
Input: Status in this test for C[C@@H](NCc1cc2ccccc2[nH]1)c1cccc2ccccc12 ?
Output: inactive

----------
- assay-details: qHTS for identification of novel therapeutic agents for treatment of microphthalmiaassociated transcription factor (MiT) renal cell carcinoma (RCC) (AID 1963991);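 also: curves scaled with 100% = DMSO viability and 0% = empty wells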
- particulars: TFE3-RCC viability, CellTiter-Glo, 48 h; measured here: UOK124 Z-AUC; stronger effect = lower value
Records with an inconclusive call do not appear.
readout: z-score
Answers are plain numbers.

[
  {
    "compound": "OCC(O)C(O)C(O)CO (centres undefined)",
    "reported-result": 0.172
  }
]

Need z-score for each of these compounds.
1. Cc1cc(-c2nnc3n2CCCCC3)c(C)n1-c1ccccc1
2. O=C(NNC(=O)c1ccc(CNS(=O)(=O)c2ccc(F)c(Cl)c2)cc1)c1ccccc1
3. O=C(O)[C@H](CC(=O)N1C[C@@H]2CCCC[C@H]2C1)Cc1ccccc1
4. Cc1onc(-c2ccccc2)c1C(=O)N[C@@H]1C(=O)N2[C@@H](C(=O)O)C(C)(C)S[C@@H]12

Output:
1: 0.469; 2: 0.329; 3: 0.446; 4: 0.727

Need z-score for each of these compounds.
1. CC(=O)OC[C@@H]1O[C@@H](n2ccc(=O)[nH]c2=O)[C@H](OC(C)=O)[C@H]1OC(C)=O
2. Cc1[nH]c(C=C2C(=O)Nc3ccccc32)c(C)c1CCC(=O)O
3. CC(=O)O[C@H]1C[C@@H]2CC[C@H]3[C@H]4C[C@H]([N+]5(C)CCCCC5)[C@@H](OC(C)=O)[C@@]4(C)CC[C@@H]3[C@@]2(C)C[C@H]1[N+]1(C)CCCCC1
4. O=C1NC(=O)C(=Cc2ccc3nccc(-c4ccncc4)c3c2)S1

Output:
1. 1.22
2. -0.97
3. 0.611
4. -1.39

----------
- assay-details: Quantitative High-Throughput drug screen in 47 multiple myeloma cell lines against the NCATS MIPE library collection: ARD_JJKsccE7 cell viability assay (AID 1918929;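 as to viability: 100% = DMSO-only wells and 0% = media-only wells without cells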)
- particulars: ARD myeloma cell line viability, CellTiter-Glo, 48 h; series mostly up to 45.8 µM
- Text: PI: Beverly A. Mock Ph.D. Laboratory of Cancer Biology and Genetics, Center for Cancer Research, National Cancer Institute, National Institute of Health, Bethesda, Maryland […] 5; Detector; 425V; Luminescence; Viewlux PerkinElmer. […] 1. […] Briefly, the corresponding myeloma cell lines were screened in 1,536-well plates with 500 cells, 5-uL per well for inhibition of cell viability (assessed by measuring ATP levels with CellTiterGlo). […]
Results filed as inconclusive are left out. The source made the active and inactive calls. The call rests on the fitted dose curve; in most records, active means well fitted cell-killing curve with a large enough effect; inconclusive means small, poorly fitted or top-dose-only effect, or effect the other way; inactive means no such curve, though single readings can be large or run the other way.
Give one outcome, nothing more. List: Y = active, N = inactive

Worked examples, 2 molecules total:
[
  {
    "molecule": "NC(=O)Nc1sc(-c2ccc(F)cc2)cc1C(N)=O",
    "group-label": "Y"
  },
  {
    "molecule": "COc1ccc([C@@H]2CNC(=O)C2)cc1OC1CCCC1",
    "group-label": "N"
  }
]

Input: Status in this test for COc1cccc2c1C(=O)c1c(O)c3c(c(O)c1C2=O)C[C@@](O)(C(=O)CO)C[C@@H]3O[C@H]1C[C@H](N)[C@H](OC2CCCCO2)[C@H](C)O1 (stereo partly specified) ?
Output: N

Input: Status in this test for CN1CCCN(C(=O)c2cccc(-c3ccc(C=C4C(=O)Nc5ccc(Cl)cc54)o3)c2)CC1 ?
Output: Y

Input: Status in this test for COC(=O)C=CC(=O)OC ?
Output: Y

Input: Status in this test for CCCNS(=O)(=O)Nc1ncnc(OCCOc2ncc(Br)cn2)c1-c1ccc(Br)cc1 ?
Output: N

Input: Status in this test for C=CC(=O)Nc1ccc2ncnc(Nc3ccc(OCc4cccc(F)c4)c(Cl)c3)c2c1 ?
Output: Y

Input: Status in this test for c1ccc(CNc2nc(NCc3ccccc3)c3ccccc3n2)cc1 ?
Output: Y

Input: Status in this test for Cc1cc(-c2nnc3n2CCCCC3)c(C)n1-c1ccccc1 ?
Output: N

Input: Status in this test for CC(=O)NC(CS)C(=O)O (stereo unspecified) ?
Output: N

Input: Status in this test for O=C1NC(O)CCN1[C@@H]1O[C@H](CO)[C@H](O)[C@H]1O (stereo partly specified) ?
Output: N
